Molecular target: Pyruvate kinase PKLR (Homo sapiens) (UniProt P30613)
Sequence (P30613 whole entry, looked up): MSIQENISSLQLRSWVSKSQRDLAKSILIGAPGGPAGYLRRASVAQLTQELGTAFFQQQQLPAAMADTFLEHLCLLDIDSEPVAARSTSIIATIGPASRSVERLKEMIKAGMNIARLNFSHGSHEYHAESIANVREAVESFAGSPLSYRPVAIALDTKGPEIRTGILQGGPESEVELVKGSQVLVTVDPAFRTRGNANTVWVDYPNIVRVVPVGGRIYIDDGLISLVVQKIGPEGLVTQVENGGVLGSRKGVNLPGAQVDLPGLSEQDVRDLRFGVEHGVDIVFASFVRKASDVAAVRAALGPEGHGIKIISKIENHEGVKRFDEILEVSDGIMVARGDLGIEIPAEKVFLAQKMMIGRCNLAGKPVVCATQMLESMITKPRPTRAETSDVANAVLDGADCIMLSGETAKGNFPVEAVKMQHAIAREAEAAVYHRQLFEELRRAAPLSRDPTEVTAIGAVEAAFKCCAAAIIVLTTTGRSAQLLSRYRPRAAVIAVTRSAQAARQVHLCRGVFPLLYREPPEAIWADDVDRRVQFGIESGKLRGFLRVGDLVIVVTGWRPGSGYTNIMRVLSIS
Test: Secondary LDH Assay for Activators of Human Liver Pyruvate Kinase: for Probe SAR
Details: purified hPK-L, LDH-coupled NADH fluorescence kinetic; series mostly up to 58.2 µM
Results filed as inconclusive are left out. The source made the active and inactive calls. The call rests on the fitted dose curve; in most records, active means well fitted curve in the direction sought with a large enough effect; inconclusive means small, poorly fitted or top-dose-only effect, or effect the other way, or another doubt; inactive means no such curve, though single readings can be large or run the other way.
Result Type: outcome

Sample answers from the record:
> print(dat)
                                smiles.data  result.type  reported.measurement
1       COc1cccc(OC2=NS(=O)(=O)c3ccccc32)c1      outcome              inactive
2  Cc1ccc(NS(=O)(=O)c2ccc3c(c2)CCCC(=O)N3)cc1C      outcome              inactive
3  Cc1ccc(NS(=O)(=O)c2ccc3c(c2)CC(=O)N3C)cc1C      outcome              inactive
4  O=C1CCc2cc([S+](=O)([O-])Nc3ccc(N[S+](=O)([O-])c4ccc5c(c4)CCC(=O)N5)cc3)ccc2N1      outcome              inactive
5     COc1cc(N2C(=O)c3ccccc3C2=O)c2ncccc2c1      outcome              inactive

Please look at this compound and report its outcome: `O=C1c2ccccc2C(=O)N1c1cnc2ccccc2c1`
inactive

Please look at this compound and report its outcome: `COc1cc(F)c(S(=O)(=O)N2CCCN(S(=O)(=O)c3cccc(N)c3)CC2)c(F)c1`
inactive

Please look at this compound and report its outcome: `CN=c1nc(-c2ccccc2)n(-c2ccccc2)s1`
inactive

Please look at this compound and report its outcome: `O=C1CCc2cc(S(=O)(=O)Nc3ccc(F)c(Cl)c3)ccc2N1`
inactive

Please look at this compound and report its outcome: `Cc1ccc(N2C(=O)c3ccccc3C2=O)c(C)c1`
inactive

Please look at this compound and report its outcome: `Cc1ccc(NS(=O)(=O)c2ccc3c(c2)N(C)C(=O)CO3)cc1C`
inactive

Please look at this compound and report its outcome: `Cc1ccc(NS(=O)(=O)c2ccc(F)cc2)cc1C`
inactive

Please look at this compound and report its outcome: `Cc1ccc(NS(=O)(=O)c2ccc3c(c2)CCC(=O)N3)cc1C`
inactive

Please look at this compound and report its outcome: `Cc1ccc(NS(=O)(=O)c2cc3c(cc2Cl)NC(=O)C3)cc1C`
inactive

// provenance: PubChem BioAssay AID2625
